Values were extracted from patent US9273319B2.

target_of_assay: T164-165 β-lactamase: maltose binding protein (MBP) fusion (Escherichia coli, UniProt P0AEX9, INS191[…])
Construct: made in house; host or cells: E. coli (library selected in malE auxotroph PM9F'; derivative of plasmid pDIMC8-Mal, IPTG-inducible lac promoter)
assay_comment: Effect of sugars on the T164-165 fusion's hydrolysis of nitrocefin (FIG. 8)
Format: biochemical, E. coli
run_parameters: 150 μM nitrocefin, 5 mM of the indicated sugar
readout_kind: increase of rate of nitrocefin hydrolysis compared to velocity without any sugar

INSERT INTO results (molecule, measurement) VALUES
  ('OC[C@H]1O[C@H](O[C@H]2[C@H](O)[C@@H](O)[C@@H](O[C@H]3[C@H](O)[C@@H](O)[C@@H](O[C@H]4[C@H](O)[C@@H](O)[C@@H](O[C@H]5[C@H](O)[C@@H](O)[C@@H](O[C@H]6[C@H](O)[C@@H](O)C(O)O[C@@H]6CO)O[C@@H]5CO)O[C@@H]4CO)O[C@@H]3CO)O[C@@H]2CO)[C@H](O)[C@@H](O)[C@@H]1O (some centres unmarked) [maltohexose]', 'approximately 40%'),
  ('OC[C@H]1O[C@H](O[C@H]2[C@H](O)[C@@H](O)C(O)O[C@@H]2CO)[C@H](O)[C@@H](O)[C@@H]1O (mixture of isomers)', 'approximately 40%');
